Molecular target: T1, Recombinant human extracellular domain of IL13RA2-6His (27-343) (human, UniProt Q14627 27-343)
T1 construct: also called Human IL13RA2-6His; human IL13Rα2
T1 sequence: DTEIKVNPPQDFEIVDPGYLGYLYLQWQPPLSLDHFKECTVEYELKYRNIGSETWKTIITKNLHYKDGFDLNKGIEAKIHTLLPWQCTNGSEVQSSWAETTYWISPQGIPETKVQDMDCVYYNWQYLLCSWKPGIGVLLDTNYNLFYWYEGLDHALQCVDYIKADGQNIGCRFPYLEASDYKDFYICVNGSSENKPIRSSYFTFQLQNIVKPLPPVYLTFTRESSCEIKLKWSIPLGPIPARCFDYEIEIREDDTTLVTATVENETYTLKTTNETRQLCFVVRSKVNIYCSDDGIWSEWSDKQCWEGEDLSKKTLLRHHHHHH
Assay: Biacore (SPR), apparent KD, IL13RA2-6His on the sensor, bivalent antibody in solution
quantity measured: Kd (nM)
The figure you give is taken to be in nM; do not add the unit.

Exercise: Dear colleague, I am looking for the recorded Kd of the following binder: Clone 47 VHA / Clone 47 VKA (HuCL47) (antibody, V domains shown, Expressed as IgG in Expi293 cells; also called VHA/VKA; VHANKA) VH: QVQLVQSGAEVKKPGASVKVSCKASGYTFSNYLMNWVRQAPGQGLEWMGRIDPYDGDIDYNQNFKDRVTITRDTSASTAYMELSSLRSEDTAVYYCARGYGTAYGVDYWGQGTSVTVSS VL: EIVLTQSPATLSLSPGERATLSCRASESVDNYGISFMNWYQQKPGQAPRLLIYAASRQGSGIPDRFSGSGSGTDFTLTISRLEPEDFAVYYCQQSKEVPWTFGGGTKLEIK
Key: 0.1

Exercise: Dear colleague, I am looking for the recorded Kd of the following binder: Clone 47 VHAback / Clone 47 VKA (antibody, V domains shown, Expressed as IgG in Expi293 cells; also called VHAback/VKA) VH: QVQLVQSGAEVKKPGASVKVSCKASGYTFSNYLMNWVRQAPGQGLEWIGRIDPYDGDIDYNQNFKDRATLTVDKSASTAYMELSSLRSEDTAVYYCARGYGTAYGVDYWGQGTSVTVSS VL: EIVLTQSPATLSLSPGERATLSCRASESVDNYGISFMNWYQQKPGQAPRLLIYAASRQGSGIPDRFSGSGSGTDFTLTISRLEPEDFAVYYCQQSKEVPWTFGGGTKLEIK
Key: 0.05

Exercise: Dear colleague, I am looking for the recorded Kd of the following binder: Clone 47 VHA / Clone 47 VKA1 (antibody, V domains shown, Expressed as IgG in Expi293 cells; also called VHA/VKA1) VH: QVQLVQSGAEVKKPGASVKVSCKASGYTFSNYLMNWVRQAPGQGLEWMGRIDPYDGDIDYNQNFKDRVTITRDTSASTAYMELSSLRSEDTAVYYCARGYGTAYGVDYWGQGTSVTVSS VL: EIVLTQSPATLSLSPGERATLSCRASESVDNYGISFMNWFQQKPGQAPRLLIYAASRQGSGIPDRFSGSGSGTDFTLTISRLEPEDFAVYYCQQSKEVPWTFGGGTKLEIK
Key: 0.21

Exercise: Dear colleague, I am looking for the recorded Kd of the following binder: Clone 47 VHA / Clone 47 VKA2 (antibody, V domains shown, Expressed as IgG in Expi293 cells; also called VHA/VKA2) VH: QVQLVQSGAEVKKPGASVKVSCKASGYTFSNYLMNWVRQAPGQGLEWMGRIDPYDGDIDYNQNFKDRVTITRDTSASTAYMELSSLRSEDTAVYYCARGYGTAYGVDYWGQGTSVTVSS VL: EIVLTQSPATLSLSPGERATLSCRASESVDNYGISFMNWYQQKPGQAPRLLIYAASRQGSGIPDRFSGSGSGTDFTLTISRLEPEDFAVYFCQQSKEVPWTFGGGTKLEIK
Key: 0.06
